- Protocol Details: Cytotoxicity against HEL cells assessed as morphological alteration after 3 days
- Format: cell-based
- Setup Conditions: human
Experimental Readout: MCC at 72 h (µg/mL)
Number in µg/mL, nothing else.

Cc1cc(-n2ccc3cccnc32)c2ncc(CSCCc3ccccc3)n2c1 :: 100
Cc1cc(N2CCOCC2)cn2c(CSCCc3ccccc3)cnc12 :: 100
Cc1cc(-c2ccsc2)cn2c(CSCc3ccccc3)cnc12 :: 4

What does the record list as MCC at 72 h for "Cc1cc(-n2ccc3ccccc32)c2ncc(CSCCc3ccccc3)n2c1" ?
100

What does the record list as MCC at 72 h for "Cc1cc(-n2ccnc2)c2ncc(CSCCc3ccccc3)n2c1" ?
20

What does the record list as MCC at 72 h for "Cc1cc(Sc2ccc(O)cc2)cn2c(CSCCc3ccccc3)cnc12" ?
4

====

Listing of entries alongside the reported MCC at 72 h.
- Protocol Details: Cytotoxicity against HEL cells assessed as morphological alteration after 3 days
- Assay type: cell-based
- Setup Conditions: human
Number in µg/mL, nothing else.

Study these solved cases before continuing.
Cc1cc(N2CCCC2)cn2c(CSCCc3ccccc3)cnc12 :: 20
Cc1cc(Sc2ccc(N)cc2)cn2c(CSCCc3ccccc3)cnc12 :: 20

Now let's try a different one.
What does the record list as MCC at 72 h for "Cc1cc(-n2cccc2)c2ncc(CSCc3ccccc3)n2c1" ?
100

====

- Protocol Details: Cytotoxicity against HEL cells assessed as reduction of growth after 3 days
- Format: cell-based
- Setup Conditions: human
Listing of entries alongside the reported CC50 at 72 h.
Answer format: number, then unit.

Study these solved cases before continuing.
Cc1cc(-c2ccoc2)c2ncc(CSCCc3ccccc3)n2c1 :: 64 µg/mL
Cc1cc(-n2cccc2)c2ncc(CSCCc3ccccc3)n2c1 :: 26 µg/mL

Now let's try a different one.
What does the record list as CC50 at 72 h for "Cc1cc(N2CCN(C)CC2)cn2c(CSCCc3ccccc3)cnc12" ?
32 µg/mL

====

- Protocol Details: Cytotoxicity against HEL cells assessed as reduction of growth after 3 days
- Type: cell-based
- Setup Conditions: human
Listing of entries alongside the reported CC50 at 72 h.

Study these solved cases before continuing.
Cc1cc(N2CCCC2)cn2c(CSCCc3ccccc3)cnc12 :: 12 µg/mL
Cc1cc(N2CCCC2)c2ncc(CSCCc3ccccc3)n2c1 :: > 100 µg/mL
Cc1cc(-c2ccco2)cn2c(CSCCc3ccccc3)cnc12 :: 40 µg/mL
Cc1cc(-c2ccco2)c2ncc(CSCCc3ccccc3)n2c1 :: 41 µg/mL
Cc1cc(-n2cccc2)cn2c(CSCCc3ccccc3)cnc12 :: 11 µg/mL
Cc1cc(-n2cccc2)c2ncc(CSCc3ccccc3)n2c1 :: 15 µg/mL
Cc1cc(C#N)cn2c(CSCCc3ccccc3)cnc12 :: 14 µg/mL
Cc1cc(-n2ccc3cccnc32)cn2c(CSCCc3ccccc3)cnc12 :: 16 µg/mL
Cc1cc(-n2ccnc2)c2ncc(CSCCc3ccccc3)n2c1 :: 10 µg/mL
Cc1cc(N2CCCC2=O)c2ncc(CSCCc3ccccc3)n2c1 :: 25 µg/mL

What does the record list as CC50 at 72 h for "Cc1cc(N2CCOCC2)cn2c(CSCCc3ccccc3)cnc12" ?
45 µg/mL

What does the record list as CC50 at 72 h for "Cc1cc(-n2ccc3cccnc32)c2ncc(CSCCc3ccccc3)n2c1" ?
> 100 µg/mL

====

Listing of entries alongside the reported CC50 at 72 h.
- Protocol Details: Cytotoxicity against HEL cells assessed as reduction of growth after 3 days
- Assay type: cell-based
- Setup Conditions: human
Number in µg/mL, nothing else.

Study these solved cases before continuing.
Nc1nc2c(ncn2COCCO)c(=O)[nH]1 :: 137
Cc1cc(-c2ccsc2)c2ncc(CSCc3ccccc3)n2c1 :: 100
O=c1[nH]c(=O)n([C@H]2C[C@H](O)[C@@H](CO)O2)cc1/C=C/Br :: 122
Cc1cc(Sc2ccc(N)cc2)cn2c(CSCCc3ccccc3)cnc12 :: 23
Cc1cc(-c2ccc(C=O)cc2)cn2c(CSCCc3ccccc3)cnc12 :: 9.4
Cc1cc(N2CCCC2)c2ncc(CSCc3ccccc3)n2c1 :: 52

What does the record list as CC50 at 72 h for "Cc1cc(Sc2ccc(Cl)cc2)c2ncc(CSCCc3ccccc3)n2c1" ?
100

What does the record list as CC50 at 72 h for "C=Cc1ccc(-c2cc(C)c3ncc(CSCc4ccccc4)n3c2)cc1" ?
59

What does the record list as CC50 at 72 h for "Cc1cc(N2CCCC2=O)cn2c(CSCCc3ccccc3)cnc12" ?
89

What does the record list as CC50 at 72 h for "C=Cc1ccc(-c2cc(C)c3ncc(CSCCc4ccccc4)n3c2)cc1" ?
14

====

- Protocol Details: Cytotoxicity against HEL cells assessed as morphological alteration after 3 days
- Format: cell-based
- Setup Conditions: human
Listing of entries alongside the reported MCC at 72 h.
Number in µg/mL, nothing else.

Study these solved cases before continuing.
O=c1[nH]c(=O)n([C@H]2C[C@H](O)[C@@H](CO)O2)cc1/C=C/Br [BRIVUDINE] :: 400
Cc1cc(-c2ccsc2)c2ncc(CSCc3ccccc3)n2c1 :: 100

Now let's try a different one.
What does the record list as MCC at 72 h for "Cc1cc(Sc2ccc(Cl)cc2)c2ncc(CSCCc3ccccc3)n2c1" ?
4

====

- Protocol Details: Cytotoxicity against HEL cells assessed as morphological alteration after 3 days
- Type: cell-based
- Setup Conditions: human
Experimental Readout: MCC at 72 h

Nc1nc2c(ncn2COCCO)c(=O)[nH]1 :: > 400 µg/mL
Cc1cc(-c2ccc3[nH]ccc3c2)cn2c(CSCCc3ccccc3)cnc12 :: ≥ 20 µg/mL
Cc1cc(N2CCCC2=O)cn2c(CSCCc3ccccc3)cnc12 :: > 100 µg/mL
Cc1cc(-n2ccc3ccccc32)cn2c(CSCCc3ccccc3)cnc12 :: > 20 µg/mL

What does the record list as MCC at 72 h for "Cc1cc(N2CCCC2)c2ncc(CSCCc3ccccc3)n2c1" ?
> 100 µg/mL

What does the record list as MCC at 72 h for "Cc1cc(Sc2ccc(O)cc2)c2ncc(CSCCc3ccccc3)n2c1" ?
> 100 µg/mL

What does the record list as MCC at 72 h for "Cc1cc(-c2ccoc2)cn2c(CSCCc3ccccc3)cnc12" ?
> 4 µg/mL

What does the record list as MCC at 72 h for "Nc1ccn(C[C@@H](CO)OCP(=O)(O)O)c(=O)n1" ?
≥ 100 µg/mL

What does the record list as MCC at 72 h for "Cc1cc(-c2ccoc2)c2ncc(CSCCc3ccccc3)n2c1" ?
100 µg/mL

What does the record list as MCC at 72 h for "Cc1cc(-n2cccc2)cn2c(CSCc3ccccc3)cnc12" ?
20 µg/mL

What does the record list as MCC at 72 h for "Cc1cc(C#N)c2ncc(CSCCc3ccccc3)n2c1" ?
≥ 20 µg/mL

====

- Protocol Details: Cytotoxicity against HEL cells assessed as morphological alteration after 3 days
- Type: cell-based
- Setup Conditions: human
Experimental Readout: MCC at 72 h

Study these solved cases before continuing.
Cc1cc(-n2ccnc2)cn2c(CSCCc3ccccc3)cnc12 :: 100 µg/mL
Cc1cc(N2CCCC2)c2ncc(CSCc3ccccc3)n2c1 :: ≥ 20 µg/mL
Cc1cc(N2CCN(C)CC2)cn2c(CSCCc3ccccc3)cnc12 :: 20 µg/mL
C=Cc1ccc(-c2cc(C)c3ncc(CSCCc4ccccc4)n3c2)cc1 :: 20 µg/mL

What does the record list as MCC at 72 h for "Cc1cc(-n2cccc2)c2ncc(CSCCc3ccccc3)n2c1" ?
100 µg/mL

What does the record list as MCC at 72 h for "Cc1cc(N2CCCC2=O)c2ncc(CSCCc3ccccc3)n2c1" ?
20 µg/mL

What does the record list as MCC at 72 h for "Cc1cc(-c2ccco2)cn2c(CSCCc3ccccc3)cnc12" ?
> 4 µg/mL
